assayComment: Intrinsic clearance in rat liver microsomes
Assay type: in vitro ADME
assayContext: pH 7.4, NADPH, read-out: Rat Microsomal Stability T½
Some compounds, each annotated with its measured half-life at 1 uM.

Use these answered entries as a reference point.
INSERT INTO results (entrysmiles, result) VALUES
  ('Cc1cccc(C)c1Oc1cn(C)c(=O)cc1-c1cn(C)c(=O)c2[nH]c(-c3cncnc3)cc12', '> 1 h'),
  ('Cc1cccc(C)c1Oc1cn(C)c(=O)cc1-c1cn(C)c(=O)c2[nH]c(-c3ccc(C#N)cc3)cc12', '> 1 h'),
  ('Cc1ccccc1-c1cc2c(-c3cc(=O)n(C)cc3Oc3c(C)cccc3C)cn(C)c(=O)c2[nH]1', '0.383 h');

Quick one: half-life at 1 uM of Cc1ccc(C(F)(F)F)cc1-c1cc2c(-c3cc(=O)n(C)cc3Oc3c(C)cccc3C)cn(C)c(=O)c2[nH]1 ?
> 1 h

###

target: BRD4 BD2 (Homo sapiens, UniProt O60885)
Construct: HEK293 cells were transfected using NanoLuc-BRD4-BD1 or NanoLuc-BRD4-BD2 fusion vectors; host or cells: HEK293
assayComment: NanoBRET bromodomain assay, BRD4 BD2
Format: cell-based
assayContext: IC50 BD1/IC50 BD2
Method: HEK293 cells were transfected using NanoLuc-BRD4-BD1 or NanoLuc-BRD4-BD2 fusion vectors and incubated at 37° C. in an atmosphere of 5% CO2 for 20-24 hours. […] Donor emission (450 nm) and acceptor emission (610 nm) were measured using PHERAstar (BMG LabTech). […] The mBU data was plotted as a function of compound concentration and IC50s for BRET assay were determined by nonlinear regression analysis of concentration response curves using the GraphPad Prism software. […]
readout: Fold selectivity BRD4 BD1/BD2

Use these answered entries as a reference point.
INSERT INTO assay_data (entrysmiles, result) VALUES
  ('Cc1cccc(C)c1Oc1cn(C)c(=O)cc1-c1cn(C)c(=O)c2[nH]c(-c3cnn(C)c3C)cc12', 'xx (Fold >50 and ≤200)'),
  ('Cc1cccc(C)c1Oc1cn(C)c(=O)cc1-c1cn(C)c(=O)c2[nH]c(-c3ccncc3)cc12', 'xxx (Fold >200)'),
  ('Cc1cnc(-c2cc3c(-c4cc(=O)n(C)cc4Oc4c(C)cccc4C)cn(C)c(=O)c3[nH]2)[nH]1', 'xxx (Fold >200)'),
  ('Cc1cccc(C)c1Oc1cn(C)c(=O)cc1-c1cn(C)c(=O)c2[nH]c(-c3ccn(C)c3)cc12', 'xxx (Fold >200)'),
  ('Cc1cccc(C)c1Oc1cn(C)c(=O)cc1-c1cn(C)c(=O)c2[nH]c(-c3ccnnc3)cc12', 'xx (Fold >50 and ≤200)');

Quick one: Fold selectivity BRD4 BD1/BD2 of Cc1cccc(C)c1Oc1cn(C)c(=O)cc1-c1cn(C)c(=O)c2[nH]c(-c3cncnc3)cc12 ?
xx (Fold >50 and ≤200)

###

target: BRD4 BD1 (Homo sapiens, UniProt O60885)
Construct: HEK293 cells were transfected using NanoLuc-BRD4-BD1 or NanoLuc-BRD4-BD2 fusion vectors
assayComment: NanoBRET bromodomain assay, BRD4 BD1
assayContext: HEK293 cells transfected with NanoLuc-BRD4-BD1
pIC50: −log10 of the molar value.
Some molecules, each annotated with its measured pIC50.

Use these answered entries as a reference point.
INSERT INTO measurements (molecule, result) VALUES
  ('Cc1cccc(C)c1Oc1cn(C2COC2)c(=O)cc1-c1cn(C)c(=O)c2[nH]c(-c3cnn(C)c3C)cc12 [Example 40]', '6.30 to 7.30'),
  ('Cc1cc(-c2cc3c(-c4cc(=O)n(C)cc4C4CCCC4)cn(C)c(=O)c3[nH]2)n(C)n1 [Example 52]', '6.30 to 7.30'),
  ('Cc1cc(-c2cc3c(-c4cc(=O)n(C)cc4Oc4c(C)cccc4C)cn(C)c(=O)c3[nH]2)cc(C)n1 [Example 17]', '< 6.00'),
  ('Cc1cccc(C)c1Oc1cn(C)c(=O)cc1-c1cn(C)c(=O)c2[nH]c(-c3cn(C4COC4)nc3C)cc12 [Example 64]', '6.00 to 6.30'),
  ('Cc1cccc(C)c1Oc1cn(C2COC2)c(=O)cc1-c1cn(C)c(=O)c2[nH]c(-c3ccccc3F)cc12 [Example 41]', '< 6.00'),
  ('Cc1cccc(C)c1Oc1cn(C)c(=O)cc1-c1cn(C)c(=O)c2[nH]c(-c3c(F)cccc3F)cc12 [Example 37]', '< 6.00');

So what pIC50 did Cc1cccc(C)c1Oc1cn(C)c(=O)cc1-c1cn(C)c(=O)c2[nH]c(-c3ccc(F)cc3)cc12 [Example 25] get with BRD4 BD1 (Homo sapiens, UniProt O60885)?
< 6.00

// data source = patent US20240308998A1
